experimental target: human α5 / zebrafish β1-1-Fc recombinant soluble integrin (human | zebrafish, UniProt P08648;Q3YAA1)
method description: ELISA
pKi: −log10 of the molar value. Bridge positions count the residues as written; N and C are the ends. Ends that are not written are not given here.
measured property: pKi

- binder: "GACRRETAWACGA (disulfide 3-11 (inferred)) [cyclic peptide GACRRETAWACGA]"
  numeric value: 7.33
